experiment: Solubility Evaluation 1: solubility of host compounds in toluene; format: physicochemical; conditions: in toluene; 100 mg compound, toluene added until dissolved
Rule: Yes for Solubility (%) not less than 2%, No for anything less.

Smiles Text	Assigned Class
c1cc(-c2ccc3ccccc3c2)cc(-c2c3ccccc3c(-c3ccc4cc(-c5ccc6ccccc6c5)ccc4c3)c3ccccc23)c1	No
c1ccc2cc(-c3c4ccccc4c(-c4ccc(-c5cccc6ccccc56)cc4)c4ccccc34)ccc2c1	Yes
c1ccc(-c2ccc(-c3c4ccccc4c(-c4ccccc4)c4ccccc34)cc2)cc1	No
c1ccc(-c2cc(-c3ccc4ccccc4c3)cc(-c3c4ccccc4c(-c4ccc5ccccc5c4)c4ccccc34)c2)cc1	Yes
c1cc(-c2ccc3ccccc3c2)cc(-c2c3ccccc3c(-c3cccc4ccccc34)c3ccccc23)c1	No
c1ccc(-c2ccc(-c3ccccc3-c3c4ccccc4c(-c4c5ccccc5c(-c5ccccc5-c5ccc(-c6ccccc6)cc5)c5ccccc45)c4ccccc34)cc2)cc1	No
